Recorded measurements of MIC, one per entry
Tested on: Streptococcus
Test: Antibacterial activity against Streptococcus gamma 32206 by CLSI agar microdilution method
Format: functional
property measured: MIC

# substance smiles, measured value
measured = [
    ("CCCCN[C@@]1(C)C[C@H](O[C@H]2[C@H](Oc3c4cc5cc3Oc3ccc(cc3Cl)[C@@H](O[C@H]3C[C@](C)(N)[C@H](O)[C@H](C)O3)[C@@H]3NC(=O)[C@H](NC(=O)[C@@H]5NC(=O)[C@H](CC(N)=O)NC(=O)[C@H](NC(=O)[C@@H](CC(C)C)NC)[C@H](O)c5ccc(c(Cl)c5)O4)c4ccc(O)c(c4)-c4c(O)cc(O)cc4[C@H](C(=O)O)NC3=O)O[C@H](CO)[C@@H](O)[C@@H]2O)O[C@@H](C)[C@H]1O", "1.56 µg/mL"),
    ("CN[C@H](CC(C)C)C(=O)N[C@H]1C(=O)N[C@@H](CC(N)=O)C(=O)N[C@H]2C(=O)N[C@H]3C(=O)N[C@H](C(=O)N[C@@H](C(=O)O)c4cc(O)cc(O)c4-c4cc3ccc4O)[C@H](O[C@H]3C[C@](C)(N)[C@H](O)[C@H](C)O3)c3ccc(c(Cl)c3)Oc3cc2cc(c3O[C@@H]2O[C@H](CO)[C@@H](O)[C@H](O)[C@H]2O[C@H]2C[C@](C)(NCc3ccccc3Br)[C@H](O)[C@H](C)O2)Oc2ccc(cc2Cl)[C@H]1O", "0.39 µg/mL"),
]
